// values below are reported pIC50
Molecular target: Ribosyldihydronicotinamide dehydrogenase [quinone] (Homo sapiens)
Sequence (P16083 whole entry): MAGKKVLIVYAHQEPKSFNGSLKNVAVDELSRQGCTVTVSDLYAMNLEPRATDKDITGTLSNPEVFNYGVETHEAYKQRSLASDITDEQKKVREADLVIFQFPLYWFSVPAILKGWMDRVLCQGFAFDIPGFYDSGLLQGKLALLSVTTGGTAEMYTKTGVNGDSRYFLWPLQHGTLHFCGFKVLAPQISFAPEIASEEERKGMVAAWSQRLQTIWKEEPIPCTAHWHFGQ
Test: Inhibition of human recombinant NQO2
# pIC50: negative log10 of molar concentration; output just the value

Recorded results for 5 compounds are shown here.
                                   compound  reported_metric  reading
0          Oc1ccccc1C(=NNc1ccccc1)c1ccccc1O            pIC50     5.41
1  Cc1nc(-n2nc(-c3ccccc3)cc2-c2ccccc2)sc1C(=O)/C=C/c1ccc(Cl)cc1            pIC50     5.28
2  Cc1nc(-n2nc(-c3ccccc3)cc2-c2ccccc2)sc1C(=O)/C=C/c1ccc([N+](=O)[O-])cc1            pIC50     5.22
3  c1ccc2c3ccn4ccc5c6ccccc6[nH]c5c4c-3nc2c1            pIC50     5.54
4  CCn1c2ccccc2c2cc(N)c(/N=N/c3ccc([N+](=O)[O-])cc3)cc21            pIC50     5.30

Now, please, on to the next compound.
Q) Give its pIC50 value. Item: O=[N+]([O-])c1ccc(/C=C/c2cc(-c3ccccc3)nc3ccc4ccccc4c23)cc1
A) 5.02

Taken from ChEMBL document CHEMBL1287791.
